target.system: T1, recombinant MS4A4A soluble polypeptide JS5
T1 construct: also called JS5.His
test.name: ELISA, 1 ug/ml antibody
Protocol: Anti-MS4A4A antibodies of the present disclosure were tested for their ability to bind to the different recombinant MS4A4A soluble polypeptides, as described in Example 2, as follows. Nucleic acid encoding the VH and VL domains of humanized anti-MS4A4A antibodies of the present disclosure were cloned into pcDNA3.4 vector which contains either the human IgG1 heavy chain constant domain or human kappa constant domain. […]
Consider the following binders; for each one, report its ELISA OD.
Keep the answer to the number alone.

Recorded ELISA OD (binder anti-MS4A4A antibody 4A-355 (antibody, V domains shown, full human IgG) VH: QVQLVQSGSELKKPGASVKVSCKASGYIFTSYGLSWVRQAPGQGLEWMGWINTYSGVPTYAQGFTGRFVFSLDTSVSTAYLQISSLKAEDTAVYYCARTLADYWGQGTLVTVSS VL: DVVMTQSPLSLPVTLGQPASISCKSSRSLLYSSGKTYLSWFQQRPGQSPRRLIYLVSKLDSGVPDRFSGSGSGTDFTLKISRVEAEDVGVYYCWQGIDFHQTFGGGTKVEIK ): 0.961

Recorded ELISA OD (binder anti-MS4A4A antibody 4A-378 (antibody, V domains shown) VH: QVQLVQSGSELKKPGASVKVSCKASGYIFTSYGLSWVRQAPGQGLEWMGWINTYSGVPTYAQGFTGRFVFSLDTSVSTAYLQISSLKAEDTAVYYCARSMADYWGQGTLVTVSS VL: DVVMTQSPLSLPVTLGQPASISCKSSRSLLYSEGKTYLSWFQQRPGQSPRRLIYLVSKLDSGVPDRFSGSGSGTDFTLKISRVEAEDVGVYYCWQGIDFHQTFGGGTKVEIK ): 0.944

Recorded ELISA OD (binder anti-MS4A4A antibody 4A-353 (antibody, V domains shown, full human IgG) VH: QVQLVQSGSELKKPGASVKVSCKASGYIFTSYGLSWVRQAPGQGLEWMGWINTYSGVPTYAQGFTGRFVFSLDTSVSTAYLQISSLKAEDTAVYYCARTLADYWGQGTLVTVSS VL: DVVMTQSPLSLPVTLGQPASISCKSSRSLLYSEGKTYLSWFQQRPGQSPRRLIYLVSKLDSGVPDRFSGSGSGTDFTLKISRVEAEDVGVYYCWQGIDFHQTFGGGTKVEIK ): 0.996

Recorded ELISA OD (binder anti-MS4A4A antibody 4A-302 (antibody, human IgG1, V domains shown, human IgG1/kappa) VH: QVQLVQSGAEVKKPGASVKVSCKASGYTFTNYWMQWVRQAPGQGLEWMGATHPGHGDTRYAQKFQGRVTMTRDTSTSTVYMELSSLRSEDTAVYYCAREEVYYGFRSYWYFDVWGRGTLVTVSS VL: EIVLTQSPATLSLSPGERATLSCRASESVDNYGVSFMNWYQQKPGQAPRLLIYGASNQGSGIPARFSGSGSGTDFTLTISSLEPEDFAVYYCQQSKEVPPTFGGGTKVEIK ): 0.128

Recorded ELISA OD (binder anti-MS4A4A antibody 4A-312 (antibody, V domains shown, full human IgG) VH: QVQLVQSGAEVKKPGASVKVSCKASGYTFTNYWMQWVRQAPGQGLEWMGATHPGHGDTRYAQKFQGRVTMTRDTSTSTVYMELSSLRSEDTAVYYCAREEVDYGFRSYWYFDVWGRGTLVTVSS VL: EIVLTQSPATLSLSPGERATLSCRASESVDNYGVSFMNWYQQKPGQAPRLLIYGASNQQSGIPARFSGSGSGTDFTLTISSLEPEDFAVYYCQQSKEVPPTFGGGTKVEIK ): 0.184

Recorded ELISA OD (binder anti-MS4A4A antibody 4A-332 (antibody, human IgG1, V domains shown, humanized 4A-21; human IgG1/kappa) VH: QVQLVQSGSELKKPGASVKVSCKASGYIFTSYGLSWVRQAPGQGLEWMGWINTYSGVPTYAQGFTGRFVFSLDTSVSTAYLQISSLKAEDTAVYYCARSLVDYWGQGTLVTVSS VL: DVVMTQSPLSLPVTLGQPASISCKSSQSLLYSDGKTYLSWFQQRPGQSPRRLIYLVSKLDSGVPDRFSGSGSGTDFTLKISRVEAEDVGVYYCWQGIDFHQTFGGGTKVEIK ): 0.997
